System: A549
EXPERIMENTAL_DETAILS: NCI tumour cell line growth inhibition, 48 h
Calls of active or inactive are those of the source. Rule as the data show it: active = GI50 up to about 1.1 µM and inactive = higher.
OBSERVABLE: GI50

Take a look at these entries with their results.
{"COMPOUND": "CCSc1cc2c(cc1O)CC[C@@H]1[C@@H]2CC[C@]2(C)[C@@H](O)CC[C@@H]12", "GI50": "4.3 µM (inactive)"}
{"COMPOUND": "CCN(CC(COc1ccc2c(c1)[n+]([O-])nc(N)[n+]2[O-])OC(C)=O)C(C)=O (stereo not given)", "GI50": "68.2 µM (inactive)"}
{"COMPOUND": "CC1=NN(C(=O)Cc2ccccc2)C(=O)/C1=C\\c1cccc(O)c1", "GI50": "> 100 µM (inactive)"}
{"COMPOUND": "CCC(=O)OCN1C(=O)C=CC1=O", "GI50": "18.7 µM (inactive)"}
{"COMPOUND": "COc1ccc2c(c1)C(=O)Cc1ccccc1CC2", "GI50": "> 100 µM (inactive)"}

We now examine a further compound.
Using known records, supply GI50 for `COC(=O)c1[nH]c(=S)[nH]c(=O)c1-c1ccc(Cl)cc1`
> 50 µM (inactive)
